Provide the reported lowest phenotypically active concentration of each item.
- System: HepG2-TP53BP1-CLTA
- TEST_DESCRIPTION: lowest phenotypically active concentration; higher = less potent
- APPLIED_CONDITIONS: treatment time: 24 h
Where a name gives a salt, the structure may show the parent alone.
Answers are plain numbers, in µM.

See these solved cases before continuing.
Cc1noc(C)c1-c1cc(O)cc(C(O)c2ccccc2)c1 (stereo not drawn) | 3
N#C/C(=C/c1ccc(O)c(O)c1)C(=O)NCCCCc1ccccc1 | 9
Oc1cccc(Nc2ccnc3cc(-c4cccc(CN5CCOCC5)c4)sc23)c1 [LCB 03-0110 dihydrochloride] | 3
Fc1ccc([C@@H]2CCNC[C@H]2COc2ccc3c(c2)OCO3)cc1 [paroxetine] | 9

State the recorded lowest phenotypically active concentration for every item in the following list.
1. Nc1ncnc2c1c(COc1cccc(Cl)c1)nn2C1CCOCC1
2. CC(C)CCN1c2nc(Nc3cc(F)c(O)c(F)c3)ncc2N(C)C(=O)C1C (stereo not drawn)

1. 9
2. 3
